# Tested on: MOLT-4 leukemia
# assay: NCI-60 one-dose screen, 48 h
# experimentalSetup: 10 µM unless noted
About 83,000 compounds went through this panel and 20% of them were active in at least one assay; those are over-represented in the sample as a whole. Activity calls are given as the source filed them. The calls were made as follows: active = growth percent below 10; inactive = the rest.
Outcome codes: active, inactive

| molecule | classification |
| --- | --- |
| COc1ccc(/C=C2\Oc3cc(OCCN4CCC(Cc5ccccc5)CC4)ccc3C2=O)cc1OC | inactive |
| O=c1c2cc(F)ccc2sc2c(NCCN3CCOCC3)nc3ccccc3c12 | inactive |
| Cc1cc2nc3ccc(N=Nc4ccc(N(C)C)cc4)cc3n(-c3ccccc3)c-2cc1=N | active |
| Oc1ccc(C#CCOc2ccccc2)cc1CNCCN(Cc1ccccn1)Cc1ccccn1 | active |
| CCc1ccc(Oc2c(-c3ccc(OCc4ccc(Cl)cc4)cc3O)n[nH]c2C(F)(F)F)cc1 | active |
| Cc1ccc(C(=O)NN2C(=O)CSC2c2ccc(Cl)cc2)cn1 (centres undefined) | inactive |
| O=C(CSc1nccc(Nc2ccc(S(=O)(=O)Nc3nccs3)cc2)n1)c1ccc(C(F)(F)F)cc1 | inactive |
| Cc1ccc(-c2nc(SCC(=O)Nc3nc(-c4ccc(Cl)cc4)cs3)[nH]c(=O)c2C#N)cc1 | inactive |
| C/C(=C\C(=O)c1ccc(Cl)cc1)c1ccc(Cl)cc1 | inactive |
| CCN1C(=O)N(CC)C2Nn3c(s/c(=C4\C(=O)N(CCC(C)C)c5ccccc54)c3=O)=NC21 (centres undefined) | inactive |
| CN1C(=C2C(=O)OC(C)(C)OC2=O)CCC1C(=O)NCc1ccc(Cl)cc1Cl (centres undefined) | inactive |
| CC([C@H]1CCC2C3CCC4C(=O)C(NC=O)=CC[C@]4(C)C3CC[C@@]21C)N(C)C (some centres undefined) | inactive |
| O=C(N/N=C/[C@@H](O)[C@H](O)[C@H](O)CO)c1ccc(NC(=O)c2cccnc2)cc1 | inactive |
| CCN(CC)Cc1cc(Nc2c3ccc(Cl)cc3nc3ccc(OC)cc23)ccc1O | inactive |
| CN1C(=O)CNC(=O)[C@H](NC(=O)c2nc3ccccc3cc2O)CSSC[C@H]1C(=O)NCCCc1nc2ccccc2cc1O | active |
| CCCCn1c(=O)c(-c2cc(-c3ccc(Cl)cc3)nc(-c3ccc(Cl)cc3)c2)cc2cc(Cl)ccc21 | inactive |
| COc1ccc(C2CC(c3ccc(Nc4nc(Nc5ccc(F)cc5)nc(Nc5ccc(Cl)cc5)n4)cc3)=NN2C(C)=O)cc1 (centres undefined) | inactive |
| CC(C)C(=O)Nc1ccc(-c2nc(-c3cccc(OCCN4CCOCC4)c3)c(-c3ccnc(Br)c3)[nH]2)cc1 | inactive |
| O=S(=O)(Nc1ccc(-c2nc(-c3cccc(OCCN4CCOCC4)c3)c(-c3ccnc(Br)c3)[nH]2)cc1)c1ccccc1 | active |
